Reference for the values: patent US20250270343A1

experimental.system: T1, soluble human GPNMB (recombinant extracellular domain) (human, UniProt Q14956 23-498)
T1 construct: also called huGPNMB; recombinant human GPNMB extracellular domain; not shown: C-terminal polyhistidine or Avi-His tag
T1 sequence: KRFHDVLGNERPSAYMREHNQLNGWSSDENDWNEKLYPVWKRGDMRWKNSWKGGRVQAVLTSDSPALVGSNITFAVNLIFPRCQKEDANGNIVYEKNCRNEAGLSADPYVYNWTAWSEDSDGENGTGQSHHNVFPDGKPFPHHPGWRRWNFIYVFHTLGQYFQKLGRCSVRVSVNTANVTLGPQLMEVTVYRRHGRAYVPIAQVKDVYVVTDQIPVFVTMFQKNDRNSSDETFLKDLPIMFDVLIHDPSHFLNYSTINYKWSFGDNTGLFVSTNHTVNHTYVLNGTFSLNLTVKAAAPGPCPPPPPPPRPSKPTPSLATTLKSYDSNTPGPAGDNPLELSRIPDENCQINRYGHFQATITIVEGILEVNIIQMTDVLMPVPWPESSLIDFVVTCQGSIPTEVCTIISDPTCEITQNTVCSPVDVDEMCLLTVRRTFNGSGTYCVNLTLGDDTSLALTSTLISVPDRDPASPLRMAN
test.method.notes: SPR Carterra, Ab immobilized
measured.endpoint: kon
// unit must come after the numeric part

get_value(item= anti-GPNMB antibody GPN-38 (antibody, human IgG1, V domains shown, chimeric) VH: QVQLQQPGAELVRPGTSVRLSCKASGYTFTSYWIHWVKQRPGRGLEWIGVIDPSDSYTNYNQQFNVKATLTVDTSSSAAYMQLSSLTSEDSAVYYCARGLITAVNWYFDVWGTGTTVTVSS VL: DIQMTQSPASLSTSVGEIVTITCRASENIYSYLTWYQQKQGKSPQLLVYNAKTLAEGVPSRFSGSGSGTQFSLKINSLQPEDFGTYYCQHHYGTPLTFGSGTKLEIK , readout=kon) returns 110000 M⁻¹ s⁻¹

get_value(item= anti-GPNMB antibody GPN-01 (antibody, human IgG1, V domains shown, chimeric) VH: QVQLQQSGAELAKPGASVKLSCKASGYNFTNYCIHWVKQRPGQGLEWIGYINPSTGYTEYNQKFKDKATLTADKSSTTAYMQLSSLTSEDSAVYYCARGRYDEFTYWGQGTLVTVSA VL: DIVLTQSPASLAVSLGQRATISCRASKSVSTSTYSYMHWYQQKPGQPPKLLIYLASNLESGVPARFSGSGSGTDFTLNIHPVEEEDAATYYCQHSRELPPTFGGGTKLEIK , readout=kon) returns 91000 M⁻¹ s⁻¹

get_value(item= anti-GPNMB antibody GPN-24 (antibody, human IgG1, V domains shown, chimeric) VH: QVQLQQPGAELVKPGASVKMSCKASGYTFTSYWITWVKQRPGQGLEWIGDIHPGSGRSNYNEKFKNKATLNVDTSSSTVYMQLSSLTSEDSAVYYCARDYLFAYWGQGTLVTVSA VL: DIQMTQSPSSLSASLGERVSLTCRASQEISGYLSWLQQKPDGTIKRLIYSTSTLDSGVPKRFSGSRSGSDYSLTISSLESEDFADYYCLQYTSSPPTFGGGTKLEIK , readout=kon) returns 69000 M⁻¹ s⁻¹
